System: U266
Test: IC50 of multiple myeloma drugs alone and with IC20 SNS01-T, U266
Type: cell-based
Conditions: Homo sapiens, U-266; U266, with IC20 SNS01-T; read-out: IC50 with IC20 SNS01-T
measurement.name: IC50 (nM)

(I) Nc1cccc2c1CN(C1CCC(=O)NC1=O)C2=O (centres unmarked) [Lenalidomide, lenalidomide]
(II) CC(C)C[C@H](NC(=O)[C@H](Cc1ccccc1)NC(=O)c1cnccn1)B(O)O
Exercise: Given the listed items, does I or II have the lesser reported IC50? # answer = label of selected item
Solution: II

---

Tested on: RPMI-8226
Test: IC50 of multiple myeloma drugs alone and with IC20 SNS01-T, RPMI-8226
Type: cell-based
Conditions: Homo sapiens; RPMI-8226, with IC20 SNS01-T; read-out: IC50 with IC20 SNS01-T
measurement.name: IC50 (µM)

(I) Nc1cccc2c1CN(C1CCC(=O)NC1=O)C2=O (centres unmarked) [Lenalidomide, lenalidomide]
(II) CC(C)C[C@H](NC(=O)[C@H](Cc1ccccc1)NC(=O)c1cnccn1)B(O)O
Exercise: I'd appreciate it if you could identify which of I and II has the greater IC50. # answer = label of selected item
Solution: I
(I: 3.28 µM, II: 0.00151 µM)

---

Tested on: KAS-6/1
Assay: IC50 of multiple myeloma drugs alone and with IC20 SNS01-T, KAS-6/1
Type: cell-based
Settings: KAS-6/1, with IC20 SNS01-T; read-out: IC50 with IC20 SNS01-T
pIC50: −log10 of the molar value.
measurement.name: pIC50

(1) Nc1cccc2c1CN(C1CCC(=O)NC1=O)C2=O (centres unmarked) [Lenalidomide, lenalidomide]
(2) CC(C)C[C@H](NC(=O)[C@H](Cc1ccccc1)NC(=O)c1cnccn1)B(O)O [Bortezomib, bortezomib]
Exercise: I'd appreciate it if you could identify which of 1 and 2 has the greater pIC50. # answer = label of selected item
Solution: 2
(2: 8.58, 1: 5.63)
